Molecular target: Protein cereblon/Bcl-2-like protein 1 (Homo sapiens, UniProt Q07817+Q96SW2)
Sequence (Q07817 whole entry, looked up): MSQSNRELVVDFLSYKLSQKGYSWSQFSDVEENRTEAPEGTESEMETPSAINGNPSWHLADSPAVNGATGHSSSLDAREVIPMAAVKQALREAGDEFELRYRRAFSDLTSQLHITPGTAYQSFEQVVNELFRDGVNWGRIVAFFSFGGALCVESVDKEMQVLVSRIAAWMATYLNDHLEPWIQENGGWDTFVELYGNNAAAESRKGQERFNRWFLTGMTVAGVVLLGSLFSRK
Sequence (Q96SW2 whole entry, looked up): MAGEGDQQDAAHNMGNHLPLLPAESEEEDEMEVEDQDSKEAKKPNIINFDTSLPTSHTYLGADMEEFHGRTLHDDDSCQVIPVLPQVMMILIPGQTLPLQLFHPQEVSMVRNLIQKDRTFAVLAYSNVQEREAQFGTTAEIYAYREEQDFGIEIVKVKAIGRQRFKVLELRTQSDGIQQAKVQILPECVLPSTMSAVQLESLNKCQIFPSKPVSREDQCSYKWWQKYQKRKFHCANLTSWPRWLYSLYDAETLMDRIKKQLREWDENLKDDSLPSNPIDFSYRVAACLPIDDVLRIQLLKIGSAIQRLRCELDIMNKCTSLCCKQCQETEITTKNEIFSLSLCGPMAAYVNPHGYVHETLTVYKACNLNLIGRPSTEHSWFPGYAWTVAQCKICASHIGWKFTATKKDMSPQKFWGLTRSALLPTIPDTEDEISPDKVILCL
Test: Protac activity at CRBN/BCL-XL in human MOLT-4 cells assessed as induction of BCL-XL degradation by measuring remaining BCL-XL level at 50 nM measured after 16 hrs by immunoblotting analysis relative to control
Assay type: cell-based
REPORTED_METRIC: Activity (%)

A selection of reference data follows.
GIVEN_SMILES	TARGET_ENTITY	Activity (%)
CN(CCCNc1cccc2c1C(=O)N([C@@H]1CCC(=O)NC1=O)C2=O)CC[C@H](CSc1ccccc1)Nc1ccc(S(=O)(=O)NC(=O)c2ccc(N3CCN(CC4=C(c5ccc(Cl)cc5)CCC(C)(C)C4)CC3)cc2)cc1S(=O)(=O)C(F)(F)F	Protein cereblon/Bcl-2-like protein 1 (Homo sapiens, UniProt Q07817+Q96SW2)	31
CN(CCOCCOCCOCCNc1cccc2c1C(=O)N([C@@H]1CCC(=O)NC1=O)C2=O)CC[C@H](CSc1ccccc1)Nc1ccc(S(=O)(=O)NC(=O)c2ccc(N3CCN(CC4=C(c5ccc(Cl)cc5)CCC(C)(C)C4)CC3)cc2)cc1S(=O)(=O)C(F)(F)F	Protein cereblon/Bcl-2-like protein 1 (Homo sapiens, UniProt Q07817+Q96SW2)	4

a: CC1(C)CCC(c2ccc(Cl)cc2)=C(CN2CCN(c3ccc(C(=O)NS(=O)(=O)c4ccc(N[C@H](CCN5CCN(C(=O)CCCCNc6cccc7c6C(=O)N([C@@H]6CCC(=O)NC6=O)C7=O)CC5)CSc5ccccc5)c(S(=O)(=O)C(F)(F)F)c4)cc3)CC2)C1
b: CN(CCCCCCCn1cc(COCCOCCNc2cccc3c2C(=O)N([C@@H]2CCC(=O)NC2=O)C3=O)nn1)CC[C@H](CSc1ccccc1)Nc1ccc(S(=O)(=O)NC(=O)c2ccc(N3CCN(CC4=C(c5ccc(Cl)cc5)CCC(C)(C)C4)CC3)cc2)cc1S(=O)(=O)C(F)(F)F
Q) For the pair a and b , which entry has the numerically smaller recorded Activity? The response must carry the label of the picked entry.
A) b

###

We begin with a simple list: items and their reported Activity.
Molecular target: von Hippel-Lindau disease tumor suppressor/Bcl-2-like protein 1 (Homo sapiens, UniProt Q07817+P40337)
Sequence (P40337 whole entry, looked up, one chain of several): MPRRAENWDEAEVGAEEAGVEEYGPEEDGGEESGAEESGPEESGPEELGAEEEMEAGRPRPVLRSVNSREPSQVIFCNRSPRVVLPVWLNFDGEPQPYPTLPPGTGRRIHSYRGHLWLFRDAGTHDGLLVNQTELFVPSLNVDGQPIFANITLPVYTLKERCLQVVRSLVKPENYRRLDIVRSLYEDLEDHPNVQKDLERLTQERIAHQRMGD
Test: Protac activity at VHL/BCL-XL in human MOLT-4 cells assessed as induction of BCL-XL degradation by measuring remaining BCL-XL level at 100 nM measured after 16 hrs by immunoblotting analysis relative to control
Type: cell-based
Write down the numeric answer in % and omit the unit.

A selection of reference data follows.
GIVEN_SMILES	REPORTED_METRIC	DATA_VALUE
Cc1ncsc1-c1ccc([C@H](C)NC(=O)[C@@H]2C[C@@H](O)CN2C(=O)[C@@H](NC(=O)CCCCCCCCN(C)CC[C@H](CSc2ccccc2)Nc2ccc(S(=O)(=O)NC(=O)c3ccc(N4CCN(CC5=C(c6ccc(Cl)cc6)CCC(C)(C)C5)CC4)cc3)cc2S(=O)(=O)C(F)(F)F)C(C)(C)C)cc1	Activity	49
Cc1ncsc1-c1ccc([C@H](C)NC(=O)[C@@H]2C[C@@H](O)CN2C(=O)[C@@H](NC(=O)CCOCCN2CCN(CC[C@H](CSc3ccccc3)Nc3ccc(S(=O)(=O)NC(=O)c4ccc(N5CCN(CC6=C(c7ccc(Cl)cc7)CCC(C)(C)C6)CC5)cc4)cc3S(=O)(=O)C(F)(F)F)CC2)C(C)(C)C)cc1	Activity	72

Q) Query (compound): Cc1ncsc1-c1ccc([C@H](C)NC(=O)[C@@H]2C[C@@H](O)CN2C(=O)[C@@H](NC(=O)CCOCCOCCN2CCN(CC[C@H](CSc3ccccc3)Nc3ccc(S(=O)(=O)NC(=O)c4ccc(N5CCN(CC6=C(c7ccc(Cl)cc7)CCC(C)(C)C6)CC5)cc4)cc3S(=O)(=O)C(F)(F)F)CC2)C(C)(C)C)cc1 ; field requested: Activity
A) 55

Q) Same question, Cc1ncsc1-c1ccc([C@H](C)NC(=O)[C@@H]2C[C@@H](O)CN2C(=O)[C@@H](NC(=O)CCCCCCCN2CCN(CC[C@H](CSc3ccccc3)Nc3ccc(S(=O)(=O)NC(=O)c4ccc(N5CCN(CC6=C(c7ccc(Cl)cc7)CCC(C)(C)C6)CC5)cc4)cc3S(=O)(=O)C(F)(F)F)CC2)C(C)(C)C)cc1 this time
A) 78
